Sourced from patent US8148391B2

Tgt: c-Met (cytoplasmic domain) (Homo sapiens)
Construct: 10 ng/mL c-Met (cytoplasmic domain, Invitrogen Corporation #PV3143); purchased Invitrogen Corporation PV3143
Protocol Notes: c-Met Kinase Assay (same methods as for ALK, with modifications)
Assay type: biochemical
Assay Setup: 1 μM ATP (Km level); read-out: cMet Activity (c-Met Kinase Inhibition, IC50)
Quantity: IC50

{"columns": ["Compound", "IC50"],
 "data": [
  ["CC(=O)OCCN1CCSc2ccc(Nc3ncc(Cl)c(N[C@@H]4CCCC[C@H]4NS(C)(=O)=O)n3)cc2C1", "1 to 10 µM"],
  ["COc1cc2c(cc1Nc1ncc(Cl)c(Nc3ccc(Cl)cc3S(=O)(=O)N(C)C)n1)CCN(CCO)CC2", "> 10 µM"]
]}

I am curious: what IC50 value has been reported for COCCN1CCc2cc(Nc3ncc(Cl)c(Nc4ccccc4S(=O)(=O)N4CC[C@H](C)C4)n3)c(OC)cc2CC1 ?
0.1 to 1 µM

# get_value(readout='IC50', item= COCCN1CCc2cc(Nc3ncc(Cl)c(NC4C5C=CC(C5)C4C(=O)N(C)C)n3)c(OC)cc2CC1 (stereo not drawn) )
> 10 µM

Quick one: IC50 for COc1c(Nc2ncc(Cl)c(N[C@@H]3CCCC[C@H]3NS(C)(=O)=O)n2)ccc2c1CCC(NCCO)CC2 (single isomer, unassigned) [Example 699] ?
> 10 µM

Which IC50 value is on record for COc1cc2c(cc1Nc1ncc(Cl)c(N[C@H]3[C@@H](C(N)=O)[C@@H]4C=C[C@H]3C4)n1)CCN(CC(F)F)CC2 (relative stereo) [Example 763] ?
> 10 µM

====

Recorded pIC50 by entry
Tgt: baculovirus-expressed ALK (Homo sapiens, UniProt Q9UM73)
Construct: host or cells: baculovirus expression system
Sequence (Q9UM73 19-1620): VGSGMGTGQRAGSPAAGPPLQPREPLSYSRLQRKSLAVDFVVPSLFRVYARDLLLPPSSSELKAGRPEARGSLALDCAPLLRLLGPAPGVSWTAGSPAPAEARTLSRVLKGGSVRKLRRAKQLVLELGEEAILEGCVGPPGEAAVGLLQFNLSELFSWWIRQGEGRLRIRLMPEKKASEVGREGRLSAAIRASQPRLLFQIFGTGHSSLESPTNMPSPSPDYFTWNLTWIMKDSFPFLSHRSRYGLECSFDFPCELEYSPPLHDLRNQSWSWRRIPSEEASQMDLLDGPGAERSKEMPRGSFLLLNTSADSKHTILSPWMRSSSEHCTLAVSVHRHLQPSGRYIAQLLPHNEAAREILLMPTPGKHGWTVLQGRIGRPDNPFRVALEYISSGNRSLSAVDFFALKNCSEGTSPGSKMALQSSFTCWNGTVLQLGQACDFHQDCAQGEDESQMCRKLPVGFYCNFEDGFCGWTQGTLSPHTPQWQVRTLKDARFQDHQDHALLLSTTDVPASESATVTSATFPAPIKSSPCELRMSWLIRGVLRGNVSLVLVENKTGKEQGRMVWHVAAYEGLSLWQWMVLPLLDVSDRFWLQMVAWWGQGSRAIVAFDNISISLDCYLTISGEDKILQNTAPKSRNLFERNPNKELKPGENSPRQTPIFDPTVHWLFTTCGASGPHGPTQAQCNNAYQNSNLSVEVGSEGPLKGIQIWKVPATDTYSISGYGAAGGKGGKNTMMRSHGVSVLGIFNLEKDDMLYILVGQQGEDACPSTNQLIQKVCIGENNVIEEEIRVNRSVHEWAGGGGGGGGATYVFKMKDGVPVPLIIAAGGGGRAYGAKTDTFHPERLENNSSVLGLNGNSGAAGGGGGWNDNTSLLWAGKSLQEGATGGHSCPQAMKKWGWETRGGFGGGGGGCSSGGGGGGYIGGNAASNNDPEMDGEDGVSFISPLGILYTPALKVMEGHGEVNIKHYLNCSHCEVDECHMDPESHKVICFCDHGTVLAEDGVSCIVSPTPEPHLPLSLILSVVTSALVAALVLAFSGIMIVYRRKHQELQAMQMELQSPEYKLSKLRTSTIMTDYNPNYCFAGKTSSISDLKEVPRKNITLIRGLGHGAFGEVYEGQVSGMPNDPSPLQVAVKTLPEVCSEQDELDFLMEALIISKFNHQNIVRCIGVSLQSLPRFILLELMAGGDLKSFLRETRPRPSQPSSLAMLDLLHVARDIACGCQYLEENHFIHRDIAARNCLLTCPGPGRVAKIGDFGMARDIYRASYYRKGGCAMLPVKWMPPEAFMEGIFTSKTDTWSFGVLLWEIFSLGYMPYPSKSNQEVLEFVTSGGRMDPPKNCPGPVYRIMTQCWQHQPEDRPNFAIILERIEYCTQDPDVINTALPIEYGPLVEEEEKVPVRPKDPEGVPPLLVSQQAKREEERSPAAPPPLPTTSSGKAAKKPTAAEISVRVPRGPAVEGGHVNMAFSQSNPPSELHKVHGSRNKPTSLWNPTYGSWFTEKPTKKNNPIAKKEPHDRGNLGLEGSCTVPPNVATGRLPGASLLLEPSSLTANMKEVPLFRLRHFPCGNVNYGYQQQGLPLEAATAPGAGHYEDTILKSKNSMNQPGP
Protocol Notes: ALK Kinase Assay (ELISA-type, time-resolved fluorescence)
Format: biochemical
Assay Setup: 1 μM ATP (Km level), 30 ng/ml ALK, 37° C., 15 minutes; read-out: ALK Activity (ALK kinase inhibition, IC50 class)
pIC50: −log10 of the molar value.

Look over these answered cases.
{"columns": ["Compound", "Tgt", "pIC50"],
 "data": [
  ["CNC(=O)c1ccc(N)cc1Nc1nc(Nc2ccc3c(c2)C(C)(C)CCC(=O)N3)ncc1Cl", "baculovirus-expressed ALK (Homo sapiens, UniProt Q9UM73)", "> 7.00"],
  ["COCCN1CCc2ccc(Nc3ncc(Cl)c(Nc4c(F)cccc4C(N)=O)n3)cc2CC1", "baculovirus-expressed ALK (Homo sapiens, UniProt Q9UM73)", "> 7.00"],
  ["C#CCNC(=O)c1cccc(F)c1Nc1nc(Nc2ccc3c(c2)CCN(CCOC)CC3)ncc1Cl", "baculovirus-expressed ALK (Homo sapiens, UniProt Q9UM73)", "> 7.00"],
  ["COCCN1CCc2ccc(Nc3ncc(Cl)c(Oc4c(F)cccc4OC4CCOC4)n3)cc2CC1 (centres unmarked)", "baculovirus-expressed ALK (Homo sapiens, UniProt Q9UM73)", "6.00 to 7.00"],
  ["C#CCNC(=O)c1cccc(F)c1Nc1nc(Nc2ccc3c(c2)NC(=O)C(NC(=O)COC)CC3(C)C)ncc1Cl (centres unmarked)", "baculovirus-expressed ALK (Homo sapiens, UniProt Q9UM73)", "> 7.00"],
  ["CNC(=O)CN1CCc2ccc(Nc3ncc(Cl)c(N[C@@H]4CCCC[C@H]4NS(C)(=O)=O)n3)cc2CC1", "baculovirus-expressed ALK (Homo sapiens, UniProt Q9UM73)", "> 7.00"]
]}

Could you share which pIC50 value was measured for COCCNC(=O)c1ccccc1Nc1nc(Nc2ccc3c(c2)CCN(CCOC)CC3)ncc1Cl ?
> 7.00

====

Tgt: c-Met (cytoplasmic domain) (Homo sapiens, UniProt P08581)
Construct: 10 ng/mL c-Met (cytoplasmic domain, Invitrogen Corporation #PV3143); purchased Invitrogen Corporation PV3143
Sequence (P08581 956-1390 limits assumed): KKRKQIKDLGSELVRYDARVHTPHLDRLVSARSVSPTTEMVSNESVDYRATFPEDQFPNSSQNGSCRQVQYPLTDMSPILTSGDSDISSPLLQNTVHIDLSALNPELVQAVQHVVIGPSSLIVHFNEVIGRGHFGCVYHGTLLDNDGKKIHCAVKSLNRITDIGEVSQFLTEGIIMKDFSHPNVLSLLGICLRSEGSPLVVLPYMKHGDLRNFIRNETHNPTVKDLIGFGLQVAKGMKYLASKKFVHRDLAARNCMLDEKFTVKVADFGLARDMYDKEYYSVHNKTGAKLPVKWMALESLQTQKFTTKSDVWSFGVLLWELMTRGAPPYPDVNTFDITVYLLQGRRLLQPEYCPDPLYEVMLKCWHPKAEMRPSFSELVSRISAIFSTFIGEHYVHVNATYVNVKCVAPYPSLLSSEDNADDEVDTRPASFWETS
Protocol Notes: c-Met Kinase Assay (same methods as for ALK, with modifications)
Assay type: biochemical
Assay Setup: c-Met kinase inhibition, 1 μM ATP; read-out: cMet Activity
pIC50: −log10 of the molar value.
pIC50 listing for selected compounds.

Before answering, review these 4 worked examples.
{"columns": ["Compound", "Quantity", "Val"],
 "data": [
  ["C#CCNC(=O)c1cccc(F)c1Nc1nc(Nc2ccc3c(c2)N(CC)C(=O)C(NC(=O)CN(C)C)CC3)ncc1Cl (stereo not drawn)", "pIC50", "> 7.00"],
  ["CN1C(=O)OCCc2cc(Nc3ncc(Cl)c(Nc4c(F)cccc4OCCN)n3)ccc21", "pIC50", "5.00 to 6.00"],
  ["CNC(=O)c1cccc(Cl)c1Nc1nc(Nc2ccc3c(c2)CCC(N2CCC(N4CCN(C)CC4)CC2)CC3)ncc1Cl (stereo not drawn)", "pIC50", "> 7.00"],
  ["CNC(=O)c1cc(F)cc(F)c1Nc1nc(Nc2ccc3c(c2)N(C(C)=O)CCCC3(C)C)ncc1Cl", "pIC50", "> 7.00"]
]}

Need pIC50, item CNC(=O)c1ccccc1Nc1nc(Nc2ccc3c(c2)NC(=O)CN(C)C3)ncc1Cl
> 7.00

Using the record for CNC(=O)c1cccc(F)c1Nc1nc(Nc2ccc3c(c2)N(C(=O)CN(C)C)CCCC3(C)C)ncc1Cl , report its pIC50.
6.00 to 7.00

Can you look up the measured pIC50 of CNC(=O)c1scc(C)c1Nc1nc(Nc2ccc3c(c2)C(C)(C)CCC(=O)N3)ncc1Cl for me?
6.00 to 7.00

====

Quick reference for pIC50 among some molecules
Tgt: baculovirus-expressed ALK (Homo sapiens, UniProt Q9UM73)
Construct: host or cells: baculovirus expression system
Protocol Notes: ALK Kinase Assay (ELISA-type, time-resolved fluorescence)
Type: biochemical
Assay Setup: 1 μM ATP (Km level); read-out: ALK Activity (ALK Kinase Inhibition, IC50)
pIC50: −log10 of the molar value.

Return pIC50 measured with baculovirus-expressed ALK (Homo sapiens, UniProt Q9UM73) given this molecule: NC(=O)[C@@H]1[C@H](Nc2nc(Nc3ccc4c(c3)CCC(NCC(F)F)CC4)ncc2Cl)[C@H]2C=C[C@@H]1C2 (stereo partly shown)
> 7.00

What reported pIC50 corresponds to CNC(=O)[C@@H]1[C@H](Nc2nc(Nc3ccc4c(c3)C(C)(C)CCC(=O)N4)ncc2Cl)[C@H]2C=C[C@@H]1C2 (relative stereo) on baculovirus-expressed ALK (Homo sapiens, UniProt Q9UM73)?
> 7.00

Request body: readout pIC50, system baculovirus-expressed ALK (Homo sapiens, UniProt Q9UM73), query CNC(=O)c1ccccc1Nc1nc(Nc2ccc3c(c2)CCCC(=O)N3CCOC)ncc1C(F)(F)F . Return the value.
> 7.00

Param readout = pIC50; param system = baculovirus-expressed ALK (Homo sapiens, UniProt Q9UM73); param query = COc1cc2c(cc1Nc1ncc(Cl)c(Nc3ccc(N4CCOCC4)c(C)c3)n1)CCN(CC(=O)N(C)C)CC2 ; response: value
> 7.00

Please state recorded pIC50 (tested on baculovirus-expressed ALK (Homo sapiens, UniProt Q9UM73)) of COc1cc2c(cc1Nc1ncc(Cl)c(Nc3ccc(N4CCC(N5CCN(C)CC5)CC4)cc3OC)n1)CCN(CC(=O)N(C)C)CC2
> 7.00

GET /values?readout=pIC50&system=baculovirus-expressed ALK (Homo sapiens, UniProt Q9UM73)&item= COc1cc2c(cc1Nc1ncc(Cl)c(Nc3cc(Cl)ccc3OC)n1)CCN(CC(F)F)CC2
6.00 to 7.00

Which pIC50 is reported with baculovirus-expressed ALK (Homo sapiens, UniProt Q9UM73) for this entry: COc1c(Nc2ncc(Cl)c(Nc3ccccc3C(=O)OC(C)C)n2)ccc2c1CCCC(N1CCOCC1)C2 (stereo not shown) ?
6.00 to 7.00

====

Tgt: c-Met (cytoplasmic domain) (Homo sapiens)
Construct: 10 ng/mL c-Met (cytoplasmic domain, Invitrogen Corporation #PV3143); purchased Invitrogen Corporation PV3143
Protocol Notes: c-Met Kinase Assay (same methods as for ALK, with modifications)
Type: biochemical
Assay Setup: 1 μM ATP (Km level); read-out: cMet Activity (c-Met Kinase Inhibition, IC50)
Listing of entries alongside the reported IC50.

Consider the following illustrative entries.
{"columns": ["Compound", "Quantity", "Val"],
 "data": [
  ["COc1c(Nc2ncc(Cl)c(N[C@@H]3CCCC[C@H]3NS(C)(=O)=O)n2)ccc2c1CCCC(NCCO)C2 (stereo partly shown)", "IC50", "> 10 µM"],
  ["Cc1cccnc1-c1ccccc1Nc1nc(Nc2ccc3c(c2)C(C)(C)CCC(=O)N3)ncc1Cl", "IC50", "1 to 10 µM"],
  ["COCCN1CCc2ccc(Nc3ncc(Cl)c(Nc4cc(C(N)=O)n[nH]4)n3)cc2CC1", "IC50", "0.1 to 1 µM"]
]}

Please look at the following compound next.
Look at this compound and give its reported IC50. COc1cc(N2CCOCC2)ccc1Nc1nc(Nc2ccc3c(c2OC)CCCC(N2CCOCC2)C3)ncc1Cl (stereo not shown)
> 10 µM
